src = patent US20040224958A1

readout.name: melting point

For CCn1c(=O)ccc2cnc(Nc3ccccc3)nc21 , what is its reported melting point? 203 to 204 °C

For O=c1ccc2cnc(Nc3ccc(F)cc3)nc2n1C1CCCCC1 , what is its reported melting point? 209 to 211 °C

For COc1ccc(Nc2ncc3ccc(=O)n(C(C)C)c3n2)cc1 , what is its reported melting point? 153 to 155 °C

For O=c1ccc2cnc(Nc3ccc(N4CCC(O)CC4)cc3)nc2n1C1CCCC1 , what is its reported melting point? 216 to 217 °C

For CCC(C)n1c(=O)ccc2cnc(Nc3ccccc3)nc21 (centres unmarked) , what is its reported melting point? 155 to 156 °C
